Taken from paper PMC5969224.

target: K241A KDM4A (Homo sapiens, UniProt O75164, K241A); construct: two recombinant variants of KDM4A (residues 1–359) in Escherichia coli BL21(DE3) cells; His6 (N); assay: 1H CPMG NMR binding assay, K241A KDM4A; conditions: K241A KDM4A; protein titrated into 40 µM JIB-04, 100 µM Fe(II), 50 mM ammonium formate pH 7.5, 10 % D2O; 600 MHz CPMG; quadratic fit; read-out: K D (JIB-04), provisional
Sequence (O75164 1-359 K241A): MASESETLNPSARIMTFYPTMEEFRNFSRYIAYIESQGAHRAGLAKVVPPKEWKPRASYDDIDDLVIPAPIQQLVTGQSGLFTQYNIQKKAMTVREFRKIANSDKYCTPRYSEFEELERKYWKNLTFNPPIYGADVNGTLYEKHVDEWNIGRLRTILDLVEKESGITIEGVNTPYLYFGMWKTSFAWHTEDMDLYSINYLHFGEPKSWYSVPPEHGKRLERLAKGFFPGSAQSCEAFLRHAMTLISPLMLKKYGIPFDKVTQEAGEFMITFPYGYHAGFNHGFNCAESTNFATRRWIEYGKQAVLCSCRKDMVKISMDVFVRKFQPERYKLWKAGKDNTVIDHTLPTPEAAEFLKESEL

smiles_code | Kd
Clc1ccc(N/N=C(\c2ccccc2)c2ccccn2)nc1 | 7 µM

* * *

target: WT KDM4A (Homo sapiens); test: 1H CPMG NMR binding assay, WT KDM4A; conditions: protein titrated into 40 µM JIB-04, 100 µM Fe(II), 50 mM ammonium formate pH 7.5, 10 % D2O, 600 MHz CPMG, quadratic fit, read-out: K D (JIB-04), provisional
Sequence (O75164 1-359): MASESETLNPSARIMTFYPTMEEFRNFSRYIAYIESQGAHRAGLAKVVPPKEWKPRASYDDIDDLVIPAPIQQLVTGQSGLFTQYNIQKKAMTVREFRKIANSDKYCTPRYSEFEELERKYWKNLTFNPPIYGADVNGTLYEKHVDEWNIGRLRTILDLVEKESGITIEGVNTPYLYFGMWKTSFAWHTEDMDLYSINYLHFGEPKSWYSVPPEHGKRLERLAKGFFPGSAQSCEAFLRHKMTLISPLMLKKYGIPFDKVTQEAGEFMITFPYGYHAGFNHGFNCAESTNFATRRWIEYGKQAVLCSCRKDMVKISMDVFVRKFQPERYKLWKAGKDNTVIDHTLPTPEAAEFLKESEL

compound | experimental_target | Kd, µM
Clc1ccc(N/N=C(\c2ccccc2)c2ccccn2)nc1 [JIB‐04] | WT KDM4A (Homo sapiens) | 22
